- EXPERIMENTAL DETAILS: yeast AGP1-GFP level changes, GLN3 branch – cell-based, multiplex flow cytometry, S. cerevisiae, primary screen (AID 1887);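 also: AGP1-GFP fusion strain of S. cerevisiae within a five-strain barcoded multiplex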
- SETUP CONDITIONS: 3 h, at 10 µM, hits give high values
Inconclusive results are not listed.
OBSERVED PROPERTY: GFP response, % of DMSO (%)

1. O=C(O)c1ccc(OCCn2ccnc2)cc1 ... 112
2. O=C(O)CCCCCN1C(=O)C(=O)/C(=C(/O)c2ccccc2)C1c1ccccc1 (stereo unspecified) ... 102
3. CC(C)CN(C)Cc1c(C(=O)N2CCc3ccccc3C2)nc2ccc(Cl)cn12 ... 105
4. COCCCN1C(=O)C(=O)/C(=C(/O)c2ccc3c(c2)CC(C)O3)C1c1cccnc1 (stereo unspecified) ... 111
5. Cc1ccc(C(=O)COC(=O)c2cnccn2)cc1[N+](=O)[O-] ... 82.5
6. Cc1ccc2[nH]c(=O)c(Cc3ccccc3)c(O)c2c1 ... 102
7. Cc1[nH]c2ccccc2c1/C=C/c1nc2ccccc2c(=O)n1CCO ... 100
8. Cc1ncc(CN2CCC(CO)(CCc3ccccc3)CC2)s1 ... 110
9. COc1ccc(-n2cc(CNCc3cccnc3)c(-c3cccc(F)c3)n2)cc1 ... 99.1
10. O=C(NC(=S)Nc1ccc(N2CCN(C(=O)c3ccccc3)CC2)cc1)c1cccs1 ... 96.1
11. CC(C)(C)NCC(O)COc1ccccc1C(=O)CCc1ccccc1 (stereo unspecified) ... 122
12. COc1ccc2cc(C3(C)NC(=O)NC3=O)ccc2c1 (stereo unspecified) ... 99.7
13. COc1ccc(-c2c[n+](CC(=O)OC3CC(C)CCC3C(C)C)c3n2CCC3)cc1 (stereo unspecified) ... 98.6
14. COc1ccccc1Oc1c(C)oc2c(CN3CCN(CCO)CC3)c(O)ccc2c1=O ... 104
15. NS(=O)(=O)c1cc2c(cc1Cl)NCNS2(=O)=O ... 123
16. O=C(NCCNc1ccc(Cl)cc1[N+](=O)[O-])c1cccnc1 ... 98.9
17. CCN1CCN(C(=S)c2ccc(OC)cc2)CC1 ... 92.6
18. COc1ccccc1NC(=O)Cn1c(C)cc(=O)c2cccc(OC)c21 ... 99.9
19. CC[N+](C)(C)c1cccc(O)c1 ... 102
20. CCN(CCCc1ccccc1)CCCc1ccccc1 ... 118
21. CCOc1ncnc2c1[nH]c1ccccc12 ... 85.7
22. CCc1cc2c(=O)c(-c3nc(C)cs3)c(CCCC(=O)O)oc2cc1O ... 100
23. Cc1ccc2c(c1)C1OCCC1C1N2C(=O)C2C(C(=O)O)C3C=CC21O3 (stereo unspecified) ... 107
24. CC(C)(C)OC(=O)NCCC(=O)Oc1ccc2ccc(=O)oc2c1 ... 84
25. CC(=O)Oc1cc2oc(=O)cc(C)c2cc1OC(C)=O ... 86
26. COc1ccc2cc(C(=O)OC(C)C)sc(=O)c2c1OC ... 106
27. CN(C)CCCN1c2ccccc2CCc2ccccc21 ... 95.3
28. CC(=O)Nc1nnc(S(N)(=O)=O)s1 ... 102
29. O=C(OCCN1CCOCC1)c1cccs1 ... 103
30. COc1cc(C2Nc3ccccc3NC3=C2C(=O)CC(c2ccc(OC)c(OC)c2)C3)ccc1O (stereo unspecified) ... 92.2
31. O=C(NCCN1CCN(c2ccccc2)CC1)c1cccc(Br)c1 ... 91.5
32. C=CCOc1ccc(C(=O)CC)cc1OC ... 98.6
33. COc1ccc(C2OC(=O)Cc3cc(OC)c(OC)cc32)cc1 (stereo unspecified) ... 88
34. CCOC(=O)C1=C(C)N[C@@]2(O)c3ccccc3C(=O)[C@@]12O ... 98.5
35. COc1cc(C=NCC2OCCc3ccccc32)cc(OC)c1 (stereo unspecified) ... 100
36. COc1ccc2[nH]c(=O)c(CNC3CCCCC3)cc2c1 ... 99.9
37. O=C(/C=C/c1ccccc1)NC(=O)c1ccccc1O ... 94.2
38. COc1cccc(OCC(O)CO)c1 (stereo unspecified) ... 91.6
39. CCN1C(=O)C(CC(=O)Nc2ccc(OC)cc2)N(CCc2ccc(F)cc2)C1=S (stereo unspecified) ... 96.2
40. CCOC(=O)c1ccc(NC(=S)NCCc2ccccc2F)cc1 ... 93.7
41. CC(C)OC(=O)C1C2C=CC3(CN(CC4CCCO4)C(=O)C13)O2 (stereo unspecified) ... 102
